- experimental_protocol: Biodistribution in male Balb/C mice
- Assay type: in vivo
- applied_conditions: 5 min post injection, tail vein; mean ± SD, n = 4
- Method: For the biodistribution studies, 100˜130 μCi of [^11C] […] All the tissue samples were collected in tared tubes and counted in an automated gamma counter (Beckman Gamma 8000 well counter) with standards, prepared by diluting the injectate. The counted tissues were then weighed, and the % ID/g was calculated (Table 4).
Biodistribution: Spleen for assorted compounds
Express the reported value numerically, then name its unit.

Answered examples (3):
O=C(Nc1ccc(OCCC[18F])cc1)c1ccc(/C=C/c2ccncc2)cc1 [[^18F]TZ-23-92]: 23.73 ± 4.54 % ID/g
COC(=O)c1ccc(/C=C/c2ccncc2)cc1 [[^11C]TZ-20-35]: 4.60 ± 0.16 % ID/g
O=C(Nc1ccc(OCC[18F])cc1)c1ccc(/C=C/c2ccncc2)cc1 [[^18F]TZ-23-88]: 3.12 ± 0.12 % ID/g

Next compound, please.
May I ask what Biodistribution: Spleen has been recorded for COc1ccc(NC(=O)c2ccc(/C=C/c3ccncc3)cc2)cc1 [[^11C]TZ-20-83] ?
18.77 ± 3.38 % ID/g

---

- test_target: tau fibrils (Homo sapiens)
- experimental_protocol: Thioflavin T competition assay (Example 130, Table 9), tau fibrils
- Format: binding
- Design: made in house; host or cells: E. coli BL21(DE3)RIL
- applied_conditions: average; read-out: Tau fibrils EC50 (avg)
- Sequence (P10636 560-692): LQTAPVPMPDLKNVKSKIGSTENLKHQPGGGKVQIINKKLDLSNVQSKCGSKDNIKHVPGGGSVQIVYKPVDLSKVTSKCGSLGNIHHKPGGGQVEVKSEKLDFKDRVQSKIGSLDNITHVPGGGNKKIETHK
parameter: pEC50
// scale note: pEC50 = -log10(conc_M); give the bare number

Fill in: pEC50 of COc1cc(/C=C/c2ccc3cc(OCCF)ccc3n2)ccn1 [[^18F]TZ-36-148] is ___
6.56

---

- test_target: α-synuclein fibrils (Homo sapiens, UniProt P37840)
- Construct: made in house; host or cells: E. coli BL21(DE3)RIL
- experimental_protocol: ThT competitive assay for α-synuclein fibrils (Table 1)
- Type: binding
- applied_conditions: individual determinations; read-out: Ki (nM) α-syn
- Method: Upon binding to amyloid fibrils, a peak at approximately 440 nm becomes dominant with the fluorescent emission maximum shifted to 480 nm. This is accompanied by a strong enhancement of the fluorescence. […] Once the ThT-α-synuclein saturation binding curve and dissociation constant (Kd) were determined the competitive assay for determining the binding affinity of various test compounds was conducted. […] The fluorescent intensity for each cell was measured by the fluorescence reader at λex and λem. […]
Each entry falls in a class defined on Ki; the bands are low = under 80 nM, moderate = from 80 nM up to 200 nM, high = 200 nM and over

Classify this compound: COc1ccc2nc(C#Cc3ccnc(OC)c3)ccc2c1 [TZ-36-142]
high

Looking at COc1ccc(C(=O)N2CCN(C(=O)c3ccc(/C=C/c4ccncc4)cc3)CC2)cc1 [TZ-20-45] , which class would you pick?
moderate

Into which bin does this compound go? C(=C\c1ccccc1)/CN1c2ccccc2Sc2ccccc21 [TZ-19-126]
high

---

- test_target: tau fibrils (Homo sapiens)
- experimental_protocol: ThT competitive assay for tau fibrils (Table 3)
- Assay type: binding
- Set-up: made in house; host or cells: E. coli
- applied_conditions: tau fibrils; average; read-out: EC50m (nM) EC50 (avg)
- Sequence (P10636 560-692 limits assumed): as the sequence (P10636 560-692) above
Each entry below carries its reported log10 EC50.
Reminder: these figures are log10 of reported EC50, in nM before transformation.

Below are worked cases with known answers.
COc1ccc(/C=C/c2ccsc2)cc1: 3.33
COc1ccc2nc(/C=C/c3ccnc(OC)c3)ccc2c1: 1.91
COc1ccc(/C=C/c2ccc(-c3cnc(C)s3)s2)cc1: 3.10
COc1cc(/C=C/c2ccc3cc(O)ccc3n2)ccn1: 2.44

Here is the next item to consider.
Which measured log10 EC50 value corresponds to COc1ccc(/C=C/c2cccs2)cc1 ?
3.53

---

- test_target: α-synuclein fibrils (Homo sapiens)
- Construct: made in house; host or cells: E. coli BL21(DE3)RIL
- experimental_protocol: ThT competitive assay for α-synuclein fibrils (Table 1)
- Format: binding
- applied_conditions: individual determinations; read-out: Ki (nM) α-syn
Ki less than 900 nM is 1; Ki greater than or equal to 900 nM is 0.

Examples from the recorded data:
Fc1ccc(/C=C/c2ccncc2)cc1: 1
OCc1ccc2oc(-c3ccc(-c4ccc(F)nc4)c(C(F)(F)F)c3)nc2c1: 0
COc1ccc(/C=C/c2cnccn2)cc1: 1
CC(C)OC(=O)c1ccc(/C=C/c2ccncc2)cc1: 1
C(=C\c1cccs1)/c1ccncc1: 1

is_below(Ki, 900 nM) for COc1ccc2c(c1)NC(=O)/C(=C/C=C/c1ccc([N+](=O)[O-])cc1)O2 ?
1

Please let me know if C(=C\c1ccccc1)/CN1c2ccccc2Oc2ccccc21 shows Ki below 900 nM.
0

Problem: For the molecule COc1ccc(/C=C/c2ccncn2)cc1 , is Ki under 900 nM?
1

In the record for Brc1ccc(/C=C/c2cccs2)cc1 , is Ki less than 900 nM?
1

Is Ki strictly under 900 nM for the entry COC(=O)c1ccc2oc(-c3ccc(-c4ccc(F)nc4)c(C(F)(F)F)c3)nc2c1 ?
0

---

- test_target: α-synuclein fibrils (Homo sapiens, UniProt P37840)
- Construct: made in house; host or cells: E. coli BL21(DE3)RIL
- experimental_protocol: ThT competitive assay for α-synuclein fibrils (Table 1)
- Format: binding
- applied_conditions: α-synuclein fibrils; average; read-out: EC50 (nM) EC50 (avg)
- Procedure: Upon binding to amyloid fibrils, a peak at approximately 440 nm becomes dominant with the fluorescent emission maximum shifted to 480 nm. This is accompanied by a strong enhancement of the fluorescence. […] Once the ThT-α-synuclein saturation binding curve and dissociation constant (Kd) were determined the competitive assay for determining the binding affinity of various test compounds was conducted. […] The fluorescent intensity for each cell was measured by the fluorescence reader at λex and λem. […]
Classify on EC50 using lower (below 300 nM), middle (300 nM to below 700 nM), upper (700 nM or more)

COc1ccc(/C=C/c2ccc(C=O)s2)cc1: middle

Determine which band this molecule sits in: COc1ccc2nc(/C=C/c3ccsc3)ccc2c1
middle

# bin lookup: classify COc1ccc(/C=C/c2cncs2)cc1 by its EC50
upper

Note: place this molecule into its band. Item: COc1ccc2nc(/C=C/c3ccnc(Br)c3)ccc2c1
middle

Exam item: assign O=[N+]([O-])c1ccc(/C=C/c2cccs2)cc1 to the correct category.
lower

GET /class?item= CN(C)c1ccc(/C=C/C=C/c2cccs2)cc1
lower

Hi, small favor: classify Brc1ccc2nc(/C=C/c3cnccn3)ccc2c1 by its EC50 when you get a moment.
upper

Bin? COc1ccc2nc(/C=C/c3ccco3)ccc2c1
upper

Each molecule maps to one class by EC50. Which class for COc1cc(/C=C/c2ccc3cc(OC(C)C)ccc3n2)ccn1 ?
lower

Into which bin does this molecule go? COc1ccc(/C=C/c2cc(C)cs2)cc1
middle

---

- experimental_protocol: Biodistribution in male Balb/C mice
- Type: in vivo
- applied_conditions: 60 min post injection, tail vein; mean ± SD, n = 4
parameter: Biodistribution: Liver (% ID/g)
Express your answer in % ID/g, writing the number without its unit.

Completed entries (count: 3):
COc1ccc(NC(=O)c2ccc(/C=C/c3ccncc3)cc2)cc1 [[^11C]TZ-20-83]: 13.36
O=C(Nc1ccc(OCC[18F])cc1)c1ccc(/C=C/c2ccncc2)cc1 [[^18F]TZ-23-88]: 10.71
COC(=O)c1ccc(/C=C/c2ccncc2)cc1 [[^11C]TZ-20-35]: 10.17

Please find the next molecule below.
Using the record for O=C(Nc1ccc(OCCC[18F])cc1)c1ccc(/C=C/c2ccncc2)cc1 [[^18F]TZ-23-92] , report its Biodistribution: Liver.
7.00

---

- experimental_protocol: Biodistribution in male Balb/C mice
- Assay type: in vivo
- applied_conditions: 60 min post injection, tail vein; mean ± SD, n = 4
Parameter Biodistribution: Pancreas: see the listing below.
Could you give me the number in % ID/g? Just the number is fine.

O=C(Nc1ccc(OCCC[18F])cc1)c1ccc(/C=C/c2ccncc2)cc1 [[^18F]TZ-23-92]: 0.98
COC(=O)c1ccc(/C=C/c2ccncc2)cc1 [[^11C]TZ-20-35]: 5.42
O=C(Nc1ccc(OCC[18F])cc1)c1ccc(/C=C/c2ccncc2)cc1 [[^18F]TZ-23-88]: 1.84

--- query ---
# get_value(readout='Biodistribution: Pancreas', item= COc1ccc(NC(=O)c2ccc(/C=C/c3ccncc3)cc2)cc1 [[^11C]TZ-20-83] )
6.96

---

Consider the following compounds and their measured Ki readings.
- test_target: tau fibrils (Homo sapiens, UniProt P10636)
- experimental_protocol: ThT competitive assay for tau fibrils (Table 3)
- Type: binding
- Set-up: made in house; host or cells: E. coli
- applied_conditions: individual determinations; read-out: Ki (nM) Tau
- Method: Tau fibril recombinant protein was produced in E. coli. Additional preparation was performed in a similar fashion to Example 115.
Report the value in nM with no unit label.

COc1ccc(/C=C/c2cccs2)cc1: 1370

Next item in the queue.
Entry under review: COc1ccc(/C=C/c2ccc(-c3cnc(C)s3)s2)cc1 . Reported Ki?
512

Data origin: patent US10300155B2
